molecular target: BRD2BD2 (Homo sapiens, UniProt P25440); experiment: competitive FP assay, BRD2 BD2 -/+ FKBP12; format: binding
Sequence (P25440 344-453 limits assumed): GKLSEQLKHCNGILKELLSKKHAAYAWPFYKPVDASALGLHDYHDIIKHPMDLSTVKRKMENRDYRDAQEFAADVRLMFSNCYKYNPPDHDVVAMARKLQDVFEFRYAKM
property-label: α BRD2BD2

compound="Cc1sc2c(c1C)C(c1ccc(C#CCNC(=O)COCCn3cc(C4CN(Cc5ccccn5)C(=O)C5CCCC4N5S(=O)(=O)c4cc(Cl)cc(Cl)c4)nn3)cc1)=NC(CC(=O)OC(C)(C)C)c1nnc(C)n1-2 (centres unmarked)" measurement=38
compound="Cc1sc2c(c1C)C(c1ccc(Cl)cc1)=NC(CC(=O)NCCOCCn1cc(COCC3CN(C(C)c4ccccn4)C(=O)C4CCCC3N4S(=O)(=O)c3cc(Cl)cc(Cl)c3)nn1)c1nnc(C)n1-2 (centres unmarked)" measurement=2.9
compound="Cc1sc2c(c1C)C(c1ccc(Cl)cc1)=NC(CC(=O)N1CCC3(CC1)CC(n1cc(C4CN(Cc5ccccn5)C(=O)C5CCCC4N5S(=O)(=O)c4cc(Cl)cc(Cl)c4)nn1)C3)c1nnc(C)n1-2 (centres unmarked) [a13c]" measurement=1.6
compound="Cc1sc2c(c1C)C(c1ccc(Cl)cc1)=N[C@@H](CC(=O)OC(C)(C)C)c1nnc(C)n1-2 [JQ1, (+)-JQ1, reference compound]" measurement=1.0
compound="Cc1sc2c(c1C)C(c1ccc(Cl)cc1)=NC(CC(=O)NCCOCCn1cc(COCC3CN(Cc4ccccn4)C(=O)C4CCCC3N4S(=O)(=O)c3cc(Cl)cc(Cl)c3)nn1)c1nnc(C)n1-2 (centres unmarked)" measurement=2.5

---

Listed next: entries and their corresponding α BRD4 43-463 Y97A.
system: BRD4 43-463 Y97A; assay: competitive FP assay, BRD4 tandem construct Y97A; type: binding
property-label: α BRD4 43-463 Y97A

compound="Cc1sc2c(c1C)C(c1ccc(Cl)cc1)=NC(CC(=O)NCCOCCn1cc(COCC3CN(Cc4ccccn4)C(=O)C4CCCC3N4S(=O)(=O)c3cc(Cl)cc(Cl)c3)nn1)c1nnc(C)n1-2 (centres unmarked)" property_label="α BRD4 43-463 Y97A" measurement=2.2
compound="Cc1sc2c(c1C)C(c1ccc(Cl)cc1)=N[C@@H](CC(=O)OC(C)(C)C)c1nnc(C)n1-2 [JQ1, (+)-JQ1, reference compound]" property_label="α BRD4 43-463 Y97A" measurement=1.2
compound="Cc1sc2c(c1C)C(c1ccc(Cl)cc1)=NC(CC(=O)NCCOCCn1cc(COCC3CN(C(C)c4ccccn4)C(=O)C4CCCC3N4S(=O)(=O)c3cc(Cl)cc(Cl)c3)nn1)c1nnc(C)n1-2 (centres unmarked)" property_label="α BRD4 43-463 Y97A" measurement=1.2
compound="Cc1sc2c(c1C)C(c1ccc(C#CCNC(=O)COCCn3cc(C4CN(Cc5ccccn5)C(=O)C5CCCC4N5S(=O)(=O)c4cc(Cl)cc(Cl)c4)nn3)cc1)=NC(CC(=O)OC(C)(C)C)c1nnc(C)n1-2 (centres unmarked)" property_label="α BRD4 43-463 Y97A" measurement=8.1
compound="Cc1sc2c(c1C)C(c1ccc(Cl)cc1)=NC(CC(=O)N1CCC3(CC1)CC(n1cc(C4CN(Cc5ccccn5)C(=O)C5CCCC4N5S(=O)(=O)c4cc(Cl)cc(Cl)c4)nn1)C3)c1nnc(C)n1-2 (centres unmarked) [a13c]" property_label="α BRD4 43-463 Y97A" measurement=1.2
